All figures here come from ChEMBL document CHEMBL4033671.

- tested.target: DNA topoisomerase 2-alpha (Homo sapiens, UniProt P11388)
- Sequence (P11388 whole entry): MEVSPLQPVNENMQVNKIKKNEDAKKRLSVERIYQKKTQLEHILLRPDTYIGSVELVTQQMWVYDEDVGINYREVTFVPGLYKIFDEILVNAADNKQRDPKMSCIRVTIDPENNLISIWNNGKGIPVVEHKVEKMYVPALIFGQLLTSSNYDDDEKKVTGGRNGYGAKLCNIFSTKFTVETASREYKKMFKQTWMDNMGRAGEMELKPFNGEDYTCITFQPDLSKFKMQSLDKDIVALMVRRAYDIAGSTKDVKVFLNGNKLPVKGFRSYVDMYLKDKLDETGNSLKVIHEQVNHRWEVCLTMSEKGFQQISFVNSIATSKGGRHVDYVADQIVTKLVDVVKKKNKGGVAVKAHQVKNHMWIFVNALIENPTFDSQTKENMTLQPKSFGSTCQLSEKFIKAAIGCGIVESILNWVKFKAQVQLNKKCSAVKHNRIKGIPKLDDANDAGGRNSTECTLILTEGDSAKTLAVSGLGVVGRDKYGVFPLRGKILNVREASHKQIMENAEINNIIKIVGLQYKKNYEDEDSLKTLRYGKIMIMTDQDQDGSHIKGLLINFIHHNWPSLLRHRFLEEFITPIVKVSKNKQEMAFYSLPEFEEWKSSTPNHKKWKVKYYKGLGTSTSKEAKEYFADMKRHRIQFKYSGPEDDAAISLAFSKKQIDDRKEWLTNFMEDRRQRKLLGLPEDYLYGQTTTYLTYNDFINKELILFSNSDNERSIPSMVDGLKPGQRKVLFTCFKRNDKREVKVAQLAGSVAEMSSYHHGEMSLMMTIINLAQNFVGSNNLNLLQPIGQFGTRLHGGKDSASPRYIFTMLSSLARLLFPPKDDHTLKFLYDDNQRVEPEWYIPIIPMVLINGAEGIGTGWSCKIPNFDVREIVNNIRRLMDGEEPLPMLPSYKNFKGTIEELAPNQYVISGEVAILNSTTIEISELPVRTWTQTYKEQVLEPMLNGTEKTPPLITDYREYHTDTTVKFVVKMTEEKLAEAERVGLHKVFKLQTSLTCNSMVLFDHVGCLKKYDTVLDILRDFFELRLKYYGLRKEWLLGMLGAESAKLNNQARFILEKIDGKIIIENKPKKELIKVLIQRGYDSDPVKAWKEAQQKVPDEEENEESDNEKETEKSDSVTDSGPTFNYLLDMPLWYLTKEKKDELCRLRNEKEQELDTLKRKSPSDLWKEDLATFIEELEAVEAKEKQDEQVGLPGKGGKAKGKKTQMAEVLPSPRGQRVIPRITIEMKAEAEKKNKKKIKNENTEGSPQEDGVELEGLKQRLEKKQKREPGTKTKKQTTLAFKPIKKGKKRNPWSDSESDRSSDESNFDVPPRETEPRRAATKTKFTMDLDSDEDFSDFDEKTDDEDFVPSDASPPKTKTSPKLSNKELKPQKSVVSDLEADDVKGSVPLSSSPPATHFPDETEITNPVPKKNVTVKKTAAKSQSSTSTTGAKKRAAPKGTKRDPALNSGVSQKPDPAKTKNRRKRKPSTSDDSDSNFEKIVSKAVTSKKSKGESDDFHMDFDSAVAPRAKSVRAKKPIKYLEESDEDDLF
- assay.explanation: Inhibition of human recombinant topoisomerase-2alpha expressed in Escherichia coli assessed as decrease in relaxation of supercoiled DNA pBR322 at 100 uM after 30 mins by ethidium bromide staining-based agarose gel electrophoresis relative to control
observable: inhibition (%)

Examples from the recorded data:
{"cpd.smiles": "O=C(C[C@H](NC(=O)OCc1ccccc1)C(=O)N[C@H](COC(=O)c1ccc(Cl)cc1)Cc1ccccc1)OCc1ccccc1", "inhibition, %": 92.9}
{"cpd.smiles": "Cc1ccccc1C(=O)OC[C@H](Cc1ccccc1)NC(=O)[C@H](CC(=O)OCc1ccccc1)NC(=O)OCc1ccccc1", "inhibition, %": 28.2}
{"cpd.smiles": "O=C(N[C@@H](Cc1ccccc1)C(=O)N[C@H](COC(=O)c1ccc(Cl)cc1)Cc1ccccc1)OCc1ccccc1", "inhibition, %": 3.2}
{"cpd.smiles": "O=C(N[C@@H](Cc1ccccc1)C(=O)N[C@H](COC(=O)c1ccccc1Cl)Cc1ccccc1)OCc1ccccc1", "inhibition, %": 4.1}
{"cpd.smiles": "CCC(=O)OC[C@H](Cc1ccccc1)NC(=O)[C@H](Cc1ccccc1)NC(=O)OCc1ccccc1", "inhibition, %": 86.1}
{"cpd.smiles": "CCC(=O)OC[C@H](Cc1ccccc1)NC(=O)[C@H](CC(=O)OCc1ccccc1)NC(=O)OCc1ccccc1", "inhibition, %": 63.8}

P: O=C(N[C@@H](Cc1ccccc1)C(=O)N[C@H](COC(=O)c1ccccc1)Cc1ccccc1)OCc1ccccc1
Q: CC(=O)OC[C@H](Cc1ccccc1)NC(=O)[C@H](CC(=O)OCc1ccccc1)NC(=O)OCc1ccccc1
[in] Return label of the item with the larger inhibition. Candidates: P , Q . Let me know the label of the one you choose.
[out] P

----------
- tested.target: DNA topoisomerase 1 (Homo sapiens)
- assay.explanation: Inhibition of human recombinant topoisomerase-1 assessed as decrease in relaxation of supercoiled DNA pBR322 at 100 uM after 30 mins by ethidium bromide staining-based agarose gel electrophoresis relative to control
observable: inhibition (%)

Examples from the recorded data:
{"cpd.smiles": "COc1ccc(C(=O)OC[C@H](Cc2ccccc2)NC(=O)[C@H](Cc2ccccc2)NC(=O)OCc2ccccc2)cc1OC", "tested.target": "DNA topoisomerase 1 (Homo sapiens)", "inhibition [%]": 5.4}
{"cpd.smiles": "CC(=O)OC[C@H](Cc1ccccc1)NC(=O)[C@H](CC(=O)OCc1ccccc1)NC(=O)OCc1ccccc1", "tested.target": "DNA topoisomerase 1 (Homo sapiens)", "inhibition [%]": 15}

I: Cc1ccccc1C(=O)OC[C@H](Cc1ccccc1)NC(=O)[C@H](Cc1ccccc1)NC(=O)OCc1ccccc1
II: O=C(C[C@H](NC(=O)OCc1ccccc1)C(=O)N[C@H](COC(=O)c1ccccc1Cl)Cc1ccccc1)OCc1ccccc1
III: O=C(N[C@@H](Cc1ccccc1)C(=O)N[C@H](COC(=O)c1ccccc1)Cc1ccccc1)OCc1ccccc1
[in] rank_up(items): orders items by reported inhibition in ascending numerical order. State the ranking by listing the labels in the requested order.
[out] II, I, III

----------
- tested.target: DNA topoisomerase 2-alpha (Homo sapiens)
- assay.explanation: Inhibition of human recombinant topoisomerase-2alpha expressed in Escherichia coli assessed as decrease in relaxation of supercoiled DNA pBR322 at 100 uM after 30 mins by ethidium bromide staining-based agarose gel electrophoresis relative to control
observable: inhibition (%)

{"cpd.smiles": "COc1ccc(C(=O)OC[C@H](Cc2ccccc2)NC(=O)[C@H](Cc2ccccc2)NC(=O)OCc2ccccc2)cc1OC", "tested.target": "DNA topoisomerase 2-alpha (Homo sapiens)", "observable": "inhibition", "unit.string": "%", "value.observed": 83.2}
{"cpd.smiles": "COc1ccc(C(=O)OC[C@H](Cc2ccccc2)NC(=O)[C@H](CC(=O)OCc2ccccc2)NC(=O)OCc2ccccc2)cc1OC", "tested.target": "DNA topoisomerase 2-alpha (Homo sapiens)", "observable": "inhibition", "unit.string": "%", "value.observed": 84.6}

I: Cc1ccccc1C(=O)OC[C@H](Cc1ccccc1)NC(=O)[C@H](Cc1ccccc1)NC(=O)OCc1ccccc1
II: O=C(C[C@H](NC(=O)OCc1ccccc1)C(=O)N[C@H](COC(=O)c1ccccc1Cl)Cc1ccccc1)OCc1ccccc1
[in] Return label of the item with the larger inhibition. Candidates: I , II . Let me know the label of the one you choose.
[out] I
(I: 62.8%, II: 41.4%)
